B1: TPR t1 (parent)
chain: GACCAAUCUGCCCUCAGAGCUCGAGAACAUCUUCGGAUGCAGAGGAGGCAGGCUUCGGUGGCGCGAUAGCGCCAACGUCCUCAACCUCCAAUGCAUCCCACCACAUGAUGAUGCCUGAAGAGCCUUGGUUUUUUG

# Variants of: B1
# Assay summary: polymerase ribozyme fitness, log enrichment relative to wild type (log ratio); higher = more active; in vitro selection for triplet polymerase activity
# cutoff -2 applies to polymerase ribozyme fitness (log ratio); >= gives Y, < gives N

>  <Variant code>
A2U G58C C72G C88U

>  <Assigned label>
N

$$$$
>  <Variant code>
U7C A16U C79U C85A

>  <Assigned label>
N

$$$$
>  <Variant code>
G42U A84G

>  <Assigned label>
N

$$$$
>  <Variant code>
U21A G45A U59G G71A

>  <Assigned label>
N

$$$$
>  <Variant code>
C20U C72G

>  <Assigned label>
Y

$$$$
>  <Variant code>
C56A U106G G110C

>  <Assigned label>
N

$$$$
>  <Variant code>
G47U G120C

>  <Assigned label>
Y

$$$$
>  <Variant code>
A5G C13U A46U C56A C72G U78A G110A

>  <Assigned label>
N

$$$$
>  <Variant code>
U96C A118U

>  <Assigned label>
Y

$$$$
>  <Variant code>
G63U C114U

>  <Assigned label>
N

$$$$
>  <Variant code>
U21A C49A C73A C115A U130G

>  <Assigned label>
Y

$$$$
>  <Variant code>
C28U G44U C62U G63C G110C U126A U132C

>  <Assigned label>
N

$$$$
>  <Variant code>
C11A G51C

>  <Assigned label>
N

$$$$
>  <Variant code>
C8G A91U

>  <Assigned label>
Y

$$$$
>  <Variant code>
C56G A111C

>  <Assigned label>
Y

$$$$
>  <Variant code>
C53A G93C

>  <Assigned label>
Y

$$$$
>  <Variant code>
U30C A50C

>  <Assigned label>
N

$$$$
>  <Variant code>
G10A C13G C22G A37C C72A A95U

>  <Assigned label>
N

$$$$
>  <Variant code>
C13G G51C G61C C104U G120C

>  <Assigned label>
N

$$$$
>  <Variant code>
A41G U106A

>  <Assigned label>
Y

$$$$
>  <Variant code>
C15U G63C

>  <Assigned label>
N

$$$$
>  <Variant code>
G17U C123A

>  <Assigned label>
Y

$$$$
>  <Variant code>
G44A C72A G117A

>  <Assigned label>
N

$$$$
>  <Variant code>
G47C C62G A118G

>  <Assigned label>
N

$$$$
>  <Variant code>
A41C C70A A118G

>  <Assigned label>
N

$$$$
>  <Variant code>
C4U C11G G60A C72G C82U C97U A108G G120A

>  <Assigned label>
N

$$$$
>  <Variant code>
G45C G57C U59A G120A

>  <Assigned label>
Y

$$$$
>  <Variant code>
U21G C53U C123G

>  <Assigned label>
Y

$$$$
>  <Variant code>
G47A C70A C101U

>  <Assigned label>
Y

$$$$
>  <Variant code>
G10C A43U U129C

>  <Assigned label>
N

$$$$
>  <Variant code>
C94A G128A U129G

>  <Assigned label>
N

$$$$
>  <Variant code>
C3G A43U

>  <Assigned label>
N

$$$$
>  <Variant code>
C11G C34U C49A C123U

>  <Assigned label>
N

$$$$
>  <Variant code>
G52U C73G A84U

>  <Assigned label>
Y

$$$$
>  <Variant code>
A16U G110A

>  <Assigned label>
N

$$$$
>  <Variant code>
C79A C115A G127C

>  <Assigned label>
Y

$$$$
>  <Variant code>
U14G U21C G42U

>  <Assigned label>
N

$$$$
>  <Variant code>
U54C A84G C88A C98U

>  <Assigned label>
Y

$$$$
>  <Variant code>
C13U U59C A83U U96G

>  <Assigned label>
Y

$$$$
>  <Variant code>
G77A G93A C124A

>  <Assigned label>
Y

$$$$
>  <Variant code>
C11G U21G G93A

>  <Assigned label>
N

$$$$
>  <Variant code>
A83U U133G

>  <Assigned label>
Y

$$$$
>  <Variant code>
G58C C76U C104A G113U A119C

>  <Assigned label>
N

$$$$
>  <Variant code>
C8U C72G A84U U87C U92G

>  <Assigned label>
N

$$$$
>  <Variant code>
C86U A100U G110A U129G

>  <Assigned label>
N

$$$$
>  <Variant code>
C3U C11G C12A A50U C56G A83U G93C G113U

>  <Assigned label>
N

$$$$
>  <Variant code>
A37C G60U C82U A83U U87A

>  <Assigned label>
N

$$$$
>  <Variant code>
C40A G48C G61A

>  <Assigned label>
Y

$$$$
>  <Variant code>
G42A C56G C85G G93A G120C

>  <Assigned label>
N

$$$$
>  <Variant code>
A24U A46G G48A C70A A111G

>  <Assigned label>
N

$$$$
>  <Variant code>
G36C G42U C56G A74C G107U U112A C114A

>  <Assigned label>
N

$$$$
>  <Variant code>
U32G C56U U109A C124U

>  <Assigned label>
N

$$$$
>  <Variant code>
U33C A90C

>  <Assigned label>
N

$$$$
>  <Variant code>
A43U U55A C72A G127A

>  <Assigned label>
N

$$$$
>  <Variant code>
U9G G77A U78C C98A G113C

>  <Assigned label>
N

$$$$
>  <Variant code>
C56U C89U

>  <Assigned label>
Y

$$$$
>  <Variant code>
G42C A66U G120A

>  <Assigned label>
N

$$$$
>  <Variant code>
G51C G61U C114U

>  <Assigned label>
N

$$$$
>  <Variant code>
U30A G110U

>  <Assigned label>
N

$$$$
>  <Variant code>
C53U C104A

>  <Assigned label>
Y

$$$$
>  <Variant code>
G44U C123A

>  <Assigned label>
Y

$$$$
>  <Variant code>
C88G G107A U130C

>  <Assigned label>
N

$$$$
>  <Variant code>
A26U C49U C98U

>  <Assigned label>
N

$$$$
>  <Variant code>
G60U A91U A121U

>  <Assigned label>
Y

$$$$
>  <Variant code>
C53A U112G C124A

>  <Assigned label>
Y

$$$$
>  <Variant code>
C34A G48A U59C C101A

>  <Assigned label>
N

$$$$
>  <Variant code>
A26G G60U G77A A84C C102G U112A U116C

>  <Assigned label>
N

$$$$
>  <Variant code>
A27U C40U C82A

>  <Assigned label>
N

$$$$
>  <Variant code>
C56U C97U A108G U116C U133G

>  <Assigned label>
N

$$$$
>  <Variant code>
U21G G42A A121G

>  <Assigned label>
N

$$$$
>  <Variant code>
G52A C56G U96G

>  <Assigned label>
Y

$$$$
>  <Variant code>
G10A G36C A50G U92G

>  <Assigned label>
N

$$$$
>  <Variant code>
U9A A50C A91G U106C

>  <Assigned label>
Y

$$$$
>  <Variant code>
A6C U78A

>  <Assigned label>
Y

$$$$
>  <Variant code>
A5C G45U C73G U81C G120A G122U

>  <Assigned label>
N

$$$$
>  <Variant code>
C49U C82U

>  <Assigned label>
Y

$$$$
>  <Variant code>
G23A U106A

>  <Assigned label>
N

$$$$
>  <Variant code>
C53A U55A C70U

>  <Assigned label>
Y

$$$$
>  <Variant code>
C64U C86U G110U G122A

>  <Assigned label>
N

$$$$
>  <Variant code>
C20G C89U U109G U132C

>  <Assigned label>
N

$$$$
>  <Variant code>
A5G U38G G48C G69U C79A

>  <Assigned label>
N

$$$$
>  <Variant code>
G47A C88G U112G U133A

>  <Assigned label>
N

$$$$
>  <Variant code>
G10U G36A G61C

>  <Assigned label>
N

$$$$
>  <Variant code>
G60A C82U

>  <Assigned label>
Y

$$$$
>  <Variant code>
C12G A29U A46U C124A

>  <Assigned label>
Y

$$$$
>  <Variant code>
C11A C64U

>  <Assigned label>
Y

$$$$
>  <Variant code>
G48U C104U

>  <Assigned label>
Y

$$$$
>  <Variant code>
C64U C114U

>  <Assigned label>
Y

$$$$

Origin of values: the RNAGym collection of RNA variant scans (doi:10.1073/pnas.2313332121)
